method-summary: Intravenous pharmacokinetics in Sprague-Dawley rats
condition-description: male, Sprague-Dawley, rat, plasma, iv, 1 mg/kg
quantity-kind: half-life (min)

molecule: COc1ccc2c3c1O[C@H]1C(=O)CC[C@@]4(O)[C@@H](C2)N(C)CC[C@]314 [Oxycodone, reference compound]
quantity-kind: half-life
numeric-result: 47

###

method-summary: in vivo
condition-description: male, Sprague-Dawley, rat, plasma, iv, 1 mg/kg
quantity-kind: MRT last (min)

molecule: COc1ccc2c3c1O[C@H]1[C@@H](O)C=C[C@H]4[C@@H](C2)N(C)CC[C@@]341
quantity-kind: MRT last
endpoint-unit: min
numeric-result: 40.2

###

method-summary: Oral pharmacokinetics in Sprague-Dawley rats
condition-description: male, rat, plasma, 5 mg/kg
quantity-kind: Cmax (ng/mL)

molecule: COc1ccc2c3c1O[C@H]1C(=O)CC[C@@]4(O)[C@@H](C2)N(C)CC[C@]314 [Oxycodone, reference compound]
endpoint-unit: ng/mL
numeric-result: 25.5

###

method-summary: in vivo
condition-description: male, Sprague-Dawley, rat, plasma, po, 5 mg/kg

molecule: COc1ccc2c3c1O[C@H]1[C@@H](O)C=C[C@H]4[C@@H](C2)N(C)CC[C@@]341
AUC [ng·h/mL]: 5.47

###

method-summary: Intravenous pharmacokinetics in Sprague-Dawley rats
condition-description: hydroxycodone series, IV 1 mg/kg, rats, Mean ± SD
Label true (1) when T1/2(z) is at or above 60 min; otherwise label false (0).

molecule: COCCOCCOCCOCCOCCO[C@H]1CC[C@@]2(O)[C@H]3Cc4ccc(OC)c5c4[C@@]2(CCN3C)[C@H]1O5 [α-6-mPEG5-O-Hydroxycodone, α-6-mPEG5-O-hydroxycodone]
answer-label: true (1)
--
molecule: COCCOCCOCCOCCOCCOCCO[C@H]1CC[C@@]2(O)[C@H]3Cc4ccc(OC)c5c4[C@@]2(CCN3C)[C@H]1O5 [α-6-mPEG6-O-Hydroxycodone, α-6-mPEG6-O-hydroxycodone]
answer-label: true (1)
--
molecule: COCCOCCO[C@H]1CC[C@@]2(O)[C@H]3Cc4ccc(OC)c5c4[C@@]2(CCN3C)[C@H]1O5 [α-6-mPEG2-O-Hydroxycodone, α-6-mPEG2-O-hydroxycodone]
answer-label: false (0)
--
molecule: COCCOCCOCCO[C@H]1CC[C@@]2(O)[C@H]3Cc4ccc(OC)c5c4[C@@]2(CCN3C)[C@H]1O5 [α-6-mPEG3-O-Hydroxycodone, α-6-mPEG3-O-hydroxycodone]
answer-label: false (0)
--
molecule: COCCOCCOCCOCCOCCOCCOCCO[C@H]1CC[C@@]2(O)[C@H]3Cc4ccc(OC)c5c4[C@@]2(CCN3C)[C@H]1O5 [α-6-mPEG7-O-Hydroxycodone, α-6-mPEG7-O-oxycodone]
answer-label: true (1)
--
molecule: COCCOCCOCCOCCO[C@H]1CC[C@@]2(O)[C@H]3Cc4ccc(OC)c5c4[C@@]2(CCN3C)[C@H]1O5 [α-6-mPEG4-O-Hydroxycodone, α-6-mPEG4-O-hydroxycodone]
answer-label: false (0)

###

method-summary: Intravenous pharmacokinetics in Sprague-Dawley rats
condition-description: hydroxycodone series, IV 1 mg/kg, rats, Mean ± SD
hey, just use T if measured CL is less than 80 mL/min/kg, otherwise F

compound: COCCOCCO[C@H]1CC[C@@]2(O)[C@H]3Cc4ccc(OC)c5c4[C@@]2(CCN3C)[C@H]1O5 [α-6-mPEG2-O-Hydroxycodone, α-6-mPEG2-O-hydroxycodone]
answer-label: F
//
compound: COCCOCCOCCOCCOCCO[C@H]1CC[C@@]2(O)[C@H]3Cc4ccc(OC)c5c4[C@@]2(CCN3C)[C@H]1O5 [α-6-mPEG5-O-Hydroxycodone, α-6-mPEG5-O-hydroxycodone]
answer-label: T
//
compound: COCCOCCOCCOCCOCCOCCOCCOCCOCCO[C@H]1CC[C@@]2(O)[C@H]3Cc4ccc(OC)c5c4[C@@]2(CCN3C)[C@H]1O5 [α-6-mPEG9-O-Hydroxycodone, α-6-mPEG9-O-hydroxycodone]
answer-label: T
//
compound: COCCOCCOCCO[C@H]1CC[C@@]2(O)[C@H]3Cc4ccc(OC)c5c4[C@@]2(CCN3C)[C@H]1O5 [α-6-mPEG3-O-Hydroxycodone, α-6-mPEG3-O-hydroxycodone]
answer-label: T
//
compound: COCCOCCOCCOCCOCCOCCOCCO[C@H]1CC[C@@]2(O)[C@H]3Cc4ccc(OC)c5c4[C@@]2(CCN3C)[C@H]1O5 [α-6-mPEG7-O-Hydroxycodone, α-6-mPEG7-O-oxycodone]
answer-label: T
//
compound: COCCOCCOCCOCCO[C@H]1CC[C@@]2(O)[C@H]3Cc4ccc(OC)c5c4[C@@]2(CCN3C)[C@H]1O5 [α-6-mPEG4-O-Hydroxycodone, α-6-mPEG4-O-hydroxycodone]
answer-label: F

###

method-summary: Intravenous pharmacokinetics in Sprague-Dawley rats
condition-description: hydroxycodone series, IV 1 mg/kg, rats, Mean ± SD
quantity-kind: Cmax (µg/mL)

molecule: COCCOCCOCCO[C@H]1CC[C@@]2(O)[C@H]3Cc4ccc(OC)c5c4[C@@]2(CCN3C)[C@H]1O5 [α-6-mPEG3-O-Hydroxycodone, α-6-mPEG3-O-hydroxycodone]
numeric-result: 0.746
//
molecule: COCCOCCO[C@H]1CC[C@@]2(O)[C@H]3Cc4ccc(OC)c5c4[C@@]2(CCN3C)[C@H]1O5 [α-6-mPEG2-O-Hydroxycodone, α-6-mPEG2-O-hydroxycodone]
numeric-result: 0.513
//
molecule: COCCOCCOCCOCCOCCOCCOCCOCCOCCO[C@H]1CC[C@@]2(O)[C@H]3Cc4ccc(OC)c5c4[C@@]2(CCN3C)[C@H]1O5 [α-6-mPEG9-O-Hydroxycodone, α-6-mPEG9-O-hydroxycodone]
numeric-result: 0.955

###

method-summary: in vivo
condition-description: male, Sprague-Dawley, rat, plasma, iv, 1 mg/kg
quantity-kind: clearance

molecule: COc1ccc2c3c1O[C@H]1[C@@H](O)C=C[C@H]4[C@@H](C2)N(C)CC[C@@]341
quantity-kind: clearance
result: 89.7 mL/min/kg

###

study-system: recombinant human mu opioid receptor (Homo sapiens (Human))
Assay type: binding

compound: COCCOCCOCCOCCO[C@H]1CC[C@@]2(O)[C@H]3Cc4ccc(OC)c5c4[C@@]2(CCN3C)[C@H]1O5 [α-6-mPEG4-O-Hydroxycodone, α-6-mPEG4-O-hydroxycodone]
study-system: recombinant human mu opioid receptor (Homo sapiens (Human))
Ki: 893 nM

###

method-summary: Intravenous pharmacokinetics in Sprague-Dawley rats
condition-description: hydroxycodone series, IV 1 mg/kg, rats, Mean ± SD
The entries below are paired with their reported AUCall.

molecule: COCCOCCOCCOCCOCCOCCOCCOCCOCCO[C@H]1CC[C@@]2(O)[C@H]3Cc4ccc(OC)c5c4[C@@]2(CCN3C)[C@H]1O5 [α-6-mPEG9-O-Hydroxycodone, α-6-mPEG9-O-hydroxycodone]
AUCall / ng·min/mL: 16600

molecule: COCCOCCOCCOCCOCCOCCOCCO[C@H]1CC[C@@]2(O)[C@H]3Cc4ccc(OC)c5c4[C@@]2(CCN3C)[C@H]1O5 [α-6-mPEG7-O-Hydroxycodone, α-6-mPEG7-O-oxycodone]
AUCall / ng·min/mL: 14300

molecule: COCCOCCOCCOCCOCCOCCO[C@H]1CC[C@@]2(O)[C@H]3Cc4ccc(OC)c5c4[C@@]2(CCN3C)[C@H]1O5 [α-6-mPEG6-O-Hydroxycodone, α-6-mPEG6-O-hydroxycodone]
AUCall / ng·min/mL: 12600

molecule: COCCOCCOCCO[C@H]1CC[C@@]2(O)[C@H]3Cc4ccc(OC)c5c4[C@@]2(CCN3C)[C@H]1O5 [α-6-mPEG3-O-Hydroxycodone, α-6-mPEG3-O-hydroxycodone]
AUCall / ng·min/mL: 13800

molecule: COCCOCCOCCOCCOCCO[C@H]1CC[C@@]2(O)[C@H]3Cc4ccc(OC)c5c4[C@@]2(CCN3C)[C@H]1O5 [α-6-mPEG5-O-Hydroxycodone, α-6-mPEG5-O-hydroxycodone]
AUCall / ng·min/mL: 16900

molecule: COCCOCCO[C@H]1CC[C@@]2(O)[C@H]3Cc4ccc(OC)c5c4[C@@]2(CCN3C)[C@H]1O5 [α-6-mPEG2-O-Hydroxycodone, α-6-mPEG2-O-hydroxycodone]
AUCall / ng·min/mL: 12000

###

method-summary: Oral pharmacokinetics in Sprague-Dawley rats
condition-description: male, rat, plasma, 5 mg/kg
quantity-kind: AUC (ng·h/mL)

molecule: COc1ccc2c3c1O[C@H]1C(=O)CC[C@@]4(O)[C@@H](C2)N(C)CC[C@]314 [Oxycodone, reference compound]
numeric-result: 75.3

###

study-system: recombinant human mu opioid receptor (Homo sapiens (Human))
Type: binding
condition-description: SPA, CHO-K1 membranes, [3H]DAMGO 6 nM
Procedure: Radioligand displacement was measured using scintillation proximity assays (SPA). Briefly, serial dilutions of the test compounds were placed in a 96-well plate to which were added SPA beads, membrane and radioligand. The assay conditions for each opioid receptor subtype are described in Table 10 below. The plates were incubated for 8 hours-overnight at room temperature, spun at 1000 rpm to pellet the SPA beads, and radioactivity was measured using the TopCount® microplate Scintillation counter. […]
This section presents compounds with their documented Ki values.
quantity-kind: Ki (nM)

compound: COCCO[C@H]1CC[C@@]2(O)[C@H]3Cc4ccc(OC)c5c4[C@@]2(CCN3C)[C@H]1O5 [α-6-mPEG1-O-Hydroxycodone, α-6-mPEG1-O-hydroxycodone]
study-system: recombinant human mu opioid receptor (Homo sapiens (Human))
quantity-kind: Ki
numeric-result: 654

compound: COCCOCCO[C@H]1CC[C@@]2(O)[C@H]3Cc4ccc(OC)c5c4[C@@]2(CCN3C)[C@H]1O5 [α-6-mPEG2-O-Hydroxycodone, α-6-mPEG2-O-hydroxycodone]
study-system: recombinant human mu opioid receptor (Homo sapiens (Human))
quantity-kind: Ki
numeric-result: 632

compound: COCCOCCOCCOCCOCCOCCOCCO[C@H]1CC[C@@]2(O)[C@H]3Cc4ccc(OC)c5c4[C@@]2(CCN3C)[C@H]1O5 [α-6-mPEG7-O-Hydroxycodone, α-6-mPEG7-O-oxycodone]
study-system: recombinant human mu opioid receptor (Homo sapiens (Human))
quantity-kind: Ki
numeric-result: 1610

compound: COCCOCCOCCOCCOCCOCCO[C@H]1CC[C@@]2(O)[C@H]3Cc4ccc(OC)c5c4[C@@]2(CCN3C)[C@H]1O5 [α-6-mPEG6-O-Hydroxycodone, α-6-mPEG6-O-hydroxycodone]
study-system: recombinant human mu opioid receptor (Homo sapiens (Human))
quantity-kind: Ki
numeric-result: 1900

compound: COCCOCCOCCO[C@H]1CC[C@@]2(O)[C@H]3Cc4ccc(OC)c5c4[C@@]2(CCN3C)[C@H]1O5 [α-6-mPEG3-O-Hydroxycodone, α-6-mPEG3-O-hydroxycodone]
study-system: recombinant human mu opioid receptor (Homo sapiens (Human))
quantity-kind: Ki
numeric-result: 775

compound: COCCOCCOCCOCCOCCO[C@H]1CC[C@@]2(O)[C@H]3Cc4ccc(OC)c5c4[C@@]2(CCN3C)[C@H]1O5 [α-6-mPEG5-O-Hydroxycodone, α-6-mPEG5-O-hydroxycodone]
study-system: recombinant human mu opioid receptor (Homo sapiens (Human))
quantity-kind: Ki
numeric-result: 1860
